experimental_protocol: Probe fluorescence ratio response to arachidonic acid relative to ADIFAB2
Format: binding
stated_conditions: arachidonic acid; response relative to ADIFAB2

[
  {
    "molecule": "72A 73P 74E (protein, listed as Rattus norvegicus, PEPTIDE (1)...(131) wild-type rat intestinal fatty acid binding protein) AFDGTWKVDRNENYEKFMEKMGINVVKRKLGAHDNLKLTITQEGNKFTVKESSNFRNIDVVFELGVDFAYSAPEGTELTGTWTMEGNKLVGKFKRVDNGKELIAVREISGNELIQTYTYEGVEAKRIFKKE",
    "DR/DR AA": 1.975
  },
  {
    "molecule": "21F 78V 102V 72A (protein, listed as Rattus norvegicus, PEPTIDE (1)...(131) wild-type rat intestinal fatty acid binding protein) AFDGTWKVDRNENYEKFMEKFGINVVKRKLGAHDNLKLTITQEGNKFTVKESSNFRNIDVVFELGVDFAYSAADGTEVTGTWTMEGNKLVGKFKRVDNGKEVIAVREISGNELIQTYTYEGVEAKRIFKKE",
    "DR/DR AA": 4.511
  }
]
